Reported inhibition at 3.125 µM values for a set of compounds
test target: human recombinant Glo-I enzyme (rhGlo-I) (Homo sapiens)
Construct: N-terminal Met and 6-His tag (N); purchased R&D Systems; host or cells: E. coli
Sequence (Q04760 2-184 limits assumed): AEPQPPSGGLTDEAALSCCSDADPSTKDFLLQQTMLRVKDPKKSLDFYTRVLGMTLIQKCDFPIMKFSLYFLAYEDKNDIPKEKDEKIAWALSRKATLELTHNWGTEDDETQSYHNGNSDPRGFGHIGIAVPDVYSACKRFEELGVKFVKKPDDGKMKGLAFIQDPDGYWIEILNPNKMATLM
assay text: Glyoxalase-I (Glo-I) enzyme inhibition assay
Type: biochemical
condition parameters: 3.125 µM; read-out: Trial three (%inhibtion)
Output spec: scalar in %, unitless text.

Solved cases below.
[[record]]
compound = "O=C1c2ccc(O)c(O)c2C(=O)c2c(O)ccc(O)c21 [Quinalizarin]"
units_text = "%"
result = 28.6

[[record]]
compound = "O=c1cc(O)cc(/C=C/c2ccc(O)c(O)c2)o1 [Hispidin]"
units_text = "%"
result = 20.2

[[record]]
compound = "Cc1ccc(C(=O)c2cc(O)c(O)c([N+](=O)[O-])c2)cc1 [Tolcapone, reference compound]"
units_text = "%"
result = 20.4


Item: C[C@]12CC[C@@H]3c4ccc(O)c(O)c4CC[C@H]3[C@@H]1CC[C@@H]2O [4-hydroxy-estradiol] Test system: human recombinant Glo-I enzyme (rhGlo-I) (Homo sapiens) Read-out: inhibition at 3.125 µM Value: ?
95.6

Now give it for O=C(/C=C/c1ccc(O)c(O)c1)O[C@H]1[C@H](O)[C@@H](O)[C@H](OCCc2ccc(O)c(O)c2)O[C@@H]1CO [Calceolarioside A] too.
6.7

Now give it for CC(/C=C/C(=O)NO)=C\[C@@H](C)C(=O)c1ccc(N(C)C)cc1 [Trichostatin A, reference compound] too.
7.44

// data source = paper PMC12527173
